The measured values listed here are drawn from paper PMC10397247.

STUDY SYSTEM: T1, 4H1324-AA
T1 chain: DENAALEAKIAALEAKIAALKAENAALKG
PROTOCOL: two-hybrid library CCmax;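 also: natural log of median RNA to DNA barcode read ratio; higher means stronger binding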
RUN CONDITIONS: mean of both orientations
OBSERVATION TYPE: interaction score

>>> endpoint_value("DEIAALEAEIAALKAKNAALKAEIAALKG [4H122-AA]")
-1.09

(I) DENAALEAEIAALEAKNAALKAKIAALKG [4H1086-AA]
(II) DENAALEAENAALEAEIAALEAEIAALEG [4H1153-AA]
(III) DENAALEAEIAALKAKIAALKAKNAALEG [4H1135-AA]
Form: Sort by [interaction score] Order [ ascending ] Sort the labels as requested; that list is your answer.
III, II, I
